# assay.target: purified recombinant human alpha synuclein fibrils (human, UniProt P37840 1-140)
# protocol.notes: SPR, Biacore T200, as in Example 3; Fab injected;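 also: ligands amine-coupled on CM5 chip flow cells, HBS-EP+ running buffer, kinetic data fitted with 1:1 model allowing local bulk contribution and global Rmax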
parameter.measured: koff (s⁻¹)
State the answer as a number, implicitly in s⁻¹.

Record excerpt, results attached:
{"binder": "6470 rabbit Fab with heavy chain mutation N99H (Fab, V domains shown) VH: QSVEESGGRLVTPGTPLTLTCTVSGIDLSSHDMYWVRQAPGKGLEYIGAIYASGSTYYASWAKGRFTISKTSTTVDLKMTSLTTEDTATYFCARIHYGHSGGLWGQGTLVTVSS VL: AIVMTQTPSSKSVAVGDTVTINCQASQSVYKNNYLAWFQQKPGQPPKQLIYGASTLASGVPSRFKGSGSGTQFTLTISDVVCDDAATYYCAGYKGGRNDGFAFGGGTEVVVKR", "value.reported": 0.00401}
{"binder": "6470 rabbit Fab with heavy chain mutation N99R (Fab, V domains shown) VH: QSVEESGGRLVTPGTPLTLTCTVSGIDLSSHDMYWVRQAPGKGLEYIGAIYASGSTYYASWAKGRFTISKTSTTVDLKMTSLTTEDTATYFCARIHYGRSGGLWGQGTLVTVSS VL: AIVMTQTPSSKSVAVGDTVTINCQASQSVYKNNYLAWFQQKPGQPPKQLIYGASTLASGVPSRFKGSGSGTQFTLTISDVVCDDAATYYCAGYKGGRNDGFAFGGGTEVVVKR", "value.reported": 0.154}

Next binder, koff to be filled in.
Request: Reported koff, binder 6470 rabbit Fab with heavy chain mutation N99Q (Fab, V domains shown) VH: QSVEESGGRLVTPGTPLTLTCTVSGIDLSSHDMYWVRQAPGKGLEYIGAIYASGSTYYASWAKGRFTISKTSTTVDLKMTSLTTEDTATYFCARIHYGQSGGLWGQGTLVTVSS VL: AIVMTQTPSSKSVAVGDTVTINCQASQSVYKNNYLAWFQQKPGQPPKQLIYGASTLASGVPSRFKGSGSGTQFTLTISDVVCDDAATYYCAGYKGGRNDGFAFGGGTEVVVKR : ____
Result: 0.425
